# system.name: T1, cynomolgus monkey serum albumin (cynomolgus monkey, UniProt A2V9Z4 25-608)
# T1 construct: also called cyno albumin; CSA
# experimental.protocol: SPR (Biacore 3000), cyno albumin on chip, Fc-ABDEG fusion, ratio of R0
Please provide measured R0 5.5/7.4 for the entries that follow.
Answers are plain numbers.

Sample answers from the record:
11C03 CDR2-V3 fused at the C-terminus of Fc-ABDEG (Fc fusion, not shown: a dimerising Fc or GST; small tags and cut ends) QLQVVESGGGLVQAGGSLRLSCAASERTFVAYPMGWFRQAPEKEREFVAGIAWFAGATTDYADSVEGRFTISRDNAKNTAYLQMNNLKPEDTAVYYCAISHQLPGGRPGRDMDSYSYWGHGTQVTVSS | 20.8
11C03 CDR1-V3 fused at the C-terminus of Fc-ABDEG (Fc fusion, not shown: a dimerising Fc or GST; small tags and cut ends) QLQVVESGGGLVQAGGSLRLSCAASERTFVAYAMGWFRQAPEKEREFVAGISWFAGATTDYADSVEGRFTISRDNAKNTAYLQMNNLKPEDTAVYYCAISHQLPGGRPGRDMDSYSYWGHGTQVTVSS | 19.8

Let's switch to this binder now.
Q: May I ask what R0 5.5/7.4 has been recorded for 11C03 CDR2-V12 fused at the C-terminus of Fc-ABDEG (Fc fusion, not shown: a dimerising Fc or GST; small tags and cut ends) QLQVVESGGGLVQAGGSLRLSCAASERTFVAYPMGWFRQAPEKEREFVAGISWFAGATTDAADSVEGRFTISRDNAKNTAYLQMNNLKPEDTAVYYCAISHQLPGGRPGRDMDSYSYWGHGTQVTVSS ?
A: 19.3
